Origin of measurements: ChEMBL document CHEMBL4823282

# System: Staphylococcus epidermidis
# MEASUREMENT_NOTES: Antibacterial activity against Staphylococcus epidermidis ATCC 12228 incubated for 18 hrs by CLSI based broth dilution method
# Format: functional
Where a SMILES comes first, the peptide text is derived from it.
Kindly state MIC for each of the entries shown.
Give bare numbers, in µM.

{"COMPOUND": "CC(C)C[C@H](NC(=O)[C@H](Cc1ccccc1)NC(=O)CN)C(=O)N[C@@H](CCCCN)C(=O)N[C@@H](CCCNC(=N)N)C(=O)N[C@@H](Cc1ccccc1)C(=O)N[C@@H](CCCCN)C(=O)N[C@H](C(=O)N[C@@H](CC(C)C)C(=O)N[C@@H](Cc1ccccc1)C(N)=O)[C@@H](C)O (H-GFLKRFKTLF-NH2)", "ASSAYED_SYSTEM": "Staphylococcus epidermidis", "REPORTED_RESULT": 8}
{"COMPOUND": "C[C@@H](O)[C@H](NC(=O)[C@H](CCCCN)NC(=O)[C@H](Cc1c[nH]c2ccccc12)NC(=O)[C@H](CCCNC(=N)N)NC(=O)[C@H](CCCCN)NC(=O)[C@H](Cc1ccccc1)NC(=O)[C@H](Cc1ccccc1)NC(=O)CN)C(=O)N[C@@H](Cc1ccccc1)C(=O)N[C@@H](Cc1ccccc1)C(N)=O (H-GFFKRWKTFF-NH2)", "ASSAYED_SYSTEM": "Staphylococcus epidermidis", "REPORTED_RESULT": 4}

MIC in this record for CC[C@H](C)[C@H](NC(=O)[C@H](CCCNC(=N)N)NC(=O)[C@H](CCCCN)NC(=O)[C@H](Cc1c[nH]c2ccccc12)NC(=O)[C@H](Cc1c[nH]c2ccccc12)NC(=O)CN)C(=O)N[C@@H](CCCCN)C(=O)N[C@H](C(=O)N[C@@H](Cc1c[nH]c2ccccc12)C(=O)N[C@@H](Cc1c[nH]c2ccccc12)C(N)=O)[C@@H](C)O (H-GWWKRIKTWW-NH2) : 8

* * *

# Tested on: Staphylococcus epidermidis
# MEASUREMENT_NOTES: Antibacterial activity against Staphylococcus epidermidis ATCC 12228 incubated for 18 hrs by CLSI based broth dilution method
# Format: functional
Where a SMILES comes first, the peptide text is derived from it.
Kindly state MIC for each of the entries shown.
Answers are plain numbers, in µM.

{"COMPOUND": "CC[C@H](C)[C@H](NC(=O)CN)C(=O)N[C@@H](CCCNC(=N)N)C(=O)N[C@@H](Cc1c[nH]c2ccccc12)C(=O)N[C@@H](CCCCN)C(=O)N[C@@H](Cc1ccccc1)C(=O)N[C@@H](Cc1c[nH]c2ccccc12)C(=O)N[C@@H](CCCCN)C(=O)N[C@@H](Cc1ccccc1)C(=O)N[C@H](C(N)=O)[C@@H](C)O (H-GIRWKFWKFT-NH2)", "MIC, µM": 128}

For every item in the list below, what is its measured MIC?
1. CN[C@@H]1[C@H](O[C@H]2[C@H](O[C@H]3[C@H](O)[C@@H](O)[C@H](N=C(N)N)[C@@H](O)[C@@H]3N=C(N)N)O[C@@H](C)[C@]2(O)C=O)O[C@@H](CO)[C@H](O)[C@H]1O [STREPTOMYCIN]
2. CO/N=C(\C(=O)N[C@@H]1C(=O)N2C(C(=O)O)=C(COC(C)=O)CS[C@H]12)c1csc(N)n1 [CEFOTAXIME]

32
2

* * *

# Test system: Pseudomonas aeruginosa
# MEASUREMENT_NOTES: Antibacterial activity against Pseudomonas aeruginosa ATCC 27853 incubated for 18 hrs by CLSI based broth dilution method
# Format: functional
Where a SMILES comes first, the peptide text is derived from it.
MEASUREMENT_LABEL: MIC (µM)
One number for each entry, in µM.

{"COMPOUND": "NC[C@H]1O[C@H](O[C@H]2[C@H](O)[C@@H](O[C@H]3O[C@H](CO)[C@@H](O)[C@H](N)[C@H]3O)[C@H](N)C[C@@H]2N)[C@H](O)[C@@H](O)[C@@H]1O [KANAMYCIN]", "MIC [µM]": 8}
{"COMPOUND": "C[C@@H](O)[C@H](NC(=O)[C@H](CCCCN)NC(=O)[C@H](Cc1c[nH]c2ccccc12)NC(=O)[C@H](CCCNC(=N)N)NC(=O)[C@H](CCCCN)NC(=O)[C@H](Cc1c[nH]c2ccccc12)NC(=O)[C@H](Cc1c[nH]c2ccccc12)NC(=O)CN)C(=O)N[C@@H](Cc1c[nH]c2ccccc12)C(=O)N[C@@H](Cc1c[nH]c2ccccc12)C(N)=O (H-GWWKRWKTWW-NH2)", "MIC [µM]": 16}

Now, please, on to the next compound.
MIC in this record for CC[C@H](C)[C@H](NC(=O)[C@H](CCCNC(=N)N)NC(=O)[C@H](CCCCN)NC(=O)[C@H](CC(C)C)NC(=O)[C@H](CC(C)C)NC(=O)CN)C(=O)N[C@@H](CCCCN)C(=O)N[C@H](C(=O)N[C@@H](CC(C)C)C(=O)N[C@@H](CC(C)C)C(N)=O)[C@@H](C)O [ANOPLIN] (H-GLLKRIKTLL-NH2) : 8

* * *

Kindly state MIC for each of the entries shown.
# Test system: Pseudomonas aeruginosa
# MEASUREMENT_NOTES: Antibacterial activity against Pseudomonas aeruginosa ATCC 27853 incubated for 18 hrs by CLSI based broth dilution method
# Format: functional
Where a SMILES comes first, the peptide text is derived from it.

// below: answered compounds
{"COMPOUND": "CO/N=C(\\C(=O)N[C@@H]1C(=O)N2C(C(=O)O)=C(COC(C)=O)CS[C@H]12)c1csc(N)n1", "ASSAYED_SYSTEM": "Pseudomonas aeruginosa", "REPORTED_RESULT": "< 1 µM"}
{"COMPOUND": "CC[C@H](C)[C@H](NC(=O)[C@H](CCCNC(=N)N)NC(=O)[C@H](CCCCN)NC(=O)[C@H](Cc1c[nH]c2ccccc12)NC(=O)[C@H](Cc1c[nH]c2ccccc12)NC(=O)CN)C(=O)N[C@@H](CCCCN)C(=O)N[C@H](C(=O)N[C@@H](Cc1c[nH]c2ccccc12)C(=O)N[C@@H](Cc1c[nH]c2ccccc12)C(N)=O)[C@@H](C)O (H-GWWKRIKTWW-NH2)", "ASSAYED_SYSTEM": "Pseudomonas aeruginosa", "REPORTED_RESULT": "8 µM"}

Now, please, on to the next compound.
MIC in this record for CC(C)C[C@H](NC(=O)CN)C(=O)N[C@@H](CC(C)C)C(=O)N[C@@H](CCCCN)C(=O)N[C@@H](CCCNC(=N)N)C(=O)N[C@@H](CC(C)C)C(=O)N[C@@H](CCCCN)C(=O)N[C@H](C(=O)N[C@@H](CC(C)C)C(=O)N[C@@H](C)C(N)=O)[C@@H](C)O (H-GLLKRLKTLA-NH2) : 256 µM

* * *

# MEASUREMENT_NOTES: Selectivity ratio of MHC10 for BALB/C mouse erythrocytes to MIC for gram positive bacteria
# Assay type: toxicity
Where a SMILES comes first, the peptide text is derived from it.
MEASUREMENT_LABEL: selectivity ratio at 18 h

// below: answered molecules
{"MOLECULE": "CC[C@H](C)[C@H](NC(=O)[C@H](CCCNC(=N)N)NC(=O)[C@H](CCCCN)NC(=O)[C@H](Cc1ccccc1)NC(=O)[C@H](Cc1c[nH]c2ccccc12)NC(=O)CN)C(=O)N[C@@H](CCCCN)C(=O)N[C@H](C(=O)N[C@@H](Cc1ccccc1)C(=O)N[C@@H](Cc1c[nH]c2ccccc12)C(N)=O)[C@@H](C)O (H-GWFKRIKTFW-NH2)", "selectivity ratio at 18 h": 34}
{"MOLECULE": "CC[C@H](C)[C@H](NC(=O)[C@H](CCCNC(=N)N)NC(=O)[C@H](CCCCN)NC(=O)[C@H](CC(C)C)NC(=O)[C@H](CC(C)C)NC(=O)CN)C(=O)N[C@@H](CCCCN)C(=O)N[C@H](C(=O)N[C@@H](CC(C)C)C(=O)N[C@@H](CC(C)C)C(N)=O)[C@@H](C)O [ANOPLIN] (H-GLLKRIKTLL-NH2)", "selectivity ratio at 18 h": 8}
{"MOLECULE": "CC(C)C[C@H](NC(=O)[C@H](Cc1ccccc1)NC(=O)CN)C(=O)N[C@@H](CCCCN)C(=O)N[C@@H](CCCNC(=N)N)C(=O)N[C@@H](Cc1ccccc1)C(=O)N[C@@H](CCCCN)C(=O)N[C@H](C(=O)N[C@@H](CC(C)C)C(=O)N[C@@H](Cc1ccccc1)C(N)=O)[C@@H](C)O (H-GFLKRFKTLF-NH2)", "selectivity ratio at 18 h": 8.48}
{"MOLECULE": "N=C(N)NCCC[C@H](NC(=O)[C@H](CCCNC(=N)N)NC(=O)[C@H](Cc1c[nH]c2ccccc12)NC(=O)[C@H](CCCNC(=N)N)NC(=O)[C@H](CCCNC(=N)N)NC(=O)[C@H](Cc1c[nH]c2ccccc12)NC(=O)[C@H](Cc1c[nH]c2ccccc12)NC(=O)[C@@H](N)CCCNC(=N)N)C(=O)N[C@@H](Cc1c[nH]c2ccccc12)C(=O)N[C@@H](Cc1c[nH]c2ccccc12)C(N)=O (H-RWWRRWRRWW-NH2)", "selectivity ratio at 18 h": 3.23}

selectivity ratio at 18 h in this record for CC(C)C[C@H](NC(=O)[C@H](CC(C)C)NC(=O)[C@@H](NC(=O)[C@H](CCCCN)NC(=O)[C@H](Cc1ccccc1)NC(=O)[C@H](CCCNC(=N)N)NC(=O)[C@H](CCCCN)NC(=O)[C@H](CC(C)C)NC(=O)[C@H](CC(C)C)NC(=O)CN)[C@@H](C)O)C(N)=O (H-GLLKRFKTLL-NH2) : 8
